B1: Ankyrin repeat and SOCS box protein 14, residues 532 to 572; numbered along this chain, A6NK59 (parent)
chain: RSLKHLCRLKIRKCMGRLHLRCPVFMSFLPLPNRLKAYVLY

- Variants of: B1
- test-summary: abundance fitness (aPCA) (normalised: wild type 0, dead -1); higher = more abundant; growth selection in yeast, the domain comes from the species named
- experimental-conditions: Homo sapiens
endpoint: abundance fitness

The cases that follow already have their abundance fitness on record.
>>> result("RSLKHLCRLKIRKCMGTLHLRCPVFMSFLPLPNRLKAYVLY [R17T]")
-0.038
>>> result("RSLKHLCRLKIRKCMGFLHLRCPVFMSFLPLPNRLKAYVLY [R17F]")
0.551
>>> result("RSLKHLCRLKCRKCMGRLHLRCPVFMSFLPLPNRLKAYVLY [I11C]")
-1.05

Consider the variant RSLKHLCRLKIRKCMGRLHLRCPVFMSFLPLPNRLGAYVLY [K36G] and give its measured abundance fitness.
-0.599

Ok, now RPLKHLCRLKIRKCMGRLHLRCPVFMSFLPLPNRLKAYVLY [S2P]
-0.521
